Each item that follows carries a reported OD450.
Target Entity: T1, human MSLN-R3-3 polypeptide (human)
T1 construct: Part of region R3 of human MSLN; also called hMSLN-R3-3; human MSLN-R3-3 protein
Measurement Description: ELISA, coated antigen, antibody 0.1 nM
Answer with the value's number alone.

These recorded examples may help you get a feel for the data.
{"columns": ["Binder", "OD450"],
 "data": [
  ["S009-F6-76.1 chimeric antibody (antibody, human IgG1, kappa, V domains shown, Human-murine chimeric antibody, human IgG1/kappa constant regions) VH: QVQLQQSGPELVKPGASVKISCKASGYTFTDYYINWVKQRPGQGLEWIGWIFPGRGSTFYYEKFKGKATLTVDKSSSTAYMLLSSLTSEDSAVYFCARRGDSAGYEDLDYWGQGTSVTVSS VL: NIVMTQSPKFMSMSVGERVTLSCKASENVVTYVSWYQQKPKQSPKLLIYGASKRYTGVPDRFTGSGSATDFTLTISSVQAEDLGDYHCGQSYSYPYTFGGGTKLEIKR", 0.05],
  ["S009-F6-62.5 chimeric antibody (antibody, human IgG1, kappa, V domains shown, Human-murine chimeric antibody, human IgG1/kappa constant regions) VH: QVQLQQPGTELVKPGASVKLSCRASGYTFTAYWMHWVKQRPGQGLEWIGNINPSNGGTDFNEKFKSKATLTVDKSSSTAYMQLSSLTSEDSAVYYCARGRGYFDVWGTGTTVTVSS VL: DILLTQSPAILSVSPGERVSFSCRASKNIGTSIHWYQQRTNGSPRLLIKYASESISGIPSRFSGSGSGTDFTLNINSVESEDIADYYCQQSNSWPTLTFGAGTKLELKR", 0.04]
]}

Here is another binder to look at.
Return OD450 (reported value) for this binder: S009-F4-127.10 chimeric antibody (antibody, human IgG1, kappa, V domains shown, Human-murine chimeric antibody, human IgG1/kappa constant regions) VH: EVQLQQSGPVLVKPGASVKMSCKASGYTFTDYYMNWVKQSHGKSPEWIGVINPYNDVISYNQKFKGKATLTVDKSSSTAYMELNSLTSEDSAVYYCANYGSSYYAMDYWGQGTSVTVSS VL: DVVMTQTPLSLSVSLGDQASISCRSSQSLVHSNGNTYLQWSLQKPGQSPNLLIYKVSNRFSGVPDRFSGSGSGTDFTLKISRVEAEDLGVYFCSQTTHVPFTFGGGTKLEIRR
0.05

The reported numbers originate from patent US20250250357A1.
